# pIC50 values compiled below
Test system: K562
assay_procedure: Cytotoxicity against human K562 cells assessed as cell growth inhibition after 48 hrs by MTS-PMS assay
Type: functional, cell-based
applied_conditions: K562, 48 h
Remember the convention: pIC50 equals -log10 of concentration in molar.

* C=C(c1c(-c2cccc(Cl)c2)[nH]c2ccccc12)c1c(-c2cccc(Cl)c2)[nH]c2ccccc12 | 4.39
* C=C(c1c(-c2ccccc2OC)[nH]c2ccccc12)c1c(-c2ccccc2OC)[nH]c2ccccc12 | 4.03

Task item: Param item = ClC=C(c1c(-c2ccccc2)[nH]c2ccccc12)c1c(-c2ccccc2)[nH]c2ccccc12 ; retrieve measured pIC50.
Reply: 4.74
